subject-of-test: T1, Fc fused human IL-18BP isoform a (IL-18BPa) (human, UniProt O95998 31-194)
T1 construct: also called IL-18BP monomer; not shown: Fc part
T1 sequence (looked up): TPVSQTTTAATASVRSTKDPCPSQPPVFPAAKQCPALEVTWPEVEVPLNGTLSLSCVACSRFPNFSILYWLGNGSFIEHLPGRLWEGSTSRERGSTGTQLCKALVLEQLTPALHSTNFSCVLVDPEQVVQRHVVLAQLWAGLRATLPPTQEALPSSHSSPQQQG
test-method-notes: SPR, Fc-IL-18BPa captured, 1:1 model
Protocol: The interaction of the wild type and of modified IL-18 polypeptides with human IL-18 receptor subunits were measured with Surface Plasmon Resonance (SPR) technology. […] The kinetic binding of the IL-18 analytes were measured with a Biacore 8K instrument in two-fold serial dilutions starting at 1 μM down to 0.98 nM. […]
Reported pKd values are given for each entry in this list.
Scale explanation: pKd corresponds to minus log10 of a concentration expressed in moles per litre.

Before answering, review these 5 worked examples.
Problem: I am curious: what pKd value has been reported for Modified IL-18 polypeptide of SEQ ID NO: 22 (E06K, K53A, C38S, C68S, C76S, C127S, K70C) (ligand) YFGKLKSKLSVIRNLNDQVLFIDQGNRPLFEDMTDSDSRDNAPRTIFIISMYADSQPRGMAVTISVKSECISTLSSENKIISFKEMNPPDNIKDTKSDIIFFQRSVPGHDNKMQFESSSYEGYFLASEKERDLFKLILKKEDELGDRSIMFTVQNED ?
Solution: 7.63

Problem: Given the entry Modified IL-18 polypeptide of SEQ ID NO: 10 (E06K, K53A, S55A, T63A) (ligand) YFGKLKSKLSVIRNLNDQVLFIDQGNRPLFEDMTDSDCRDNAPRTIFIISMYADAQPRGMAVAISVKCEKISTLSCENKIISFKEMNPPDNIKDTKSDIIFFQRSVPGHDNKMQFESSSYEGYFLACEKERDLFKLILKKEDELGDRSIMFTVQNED , report its measured pKd.
Solution: 7.31

Problem: Endpoint output: pKd of Modified IL-18 polypeptide of SEQ ID NO: 70 (E6K, K53A, C38S, C76S, C127S) (ligand) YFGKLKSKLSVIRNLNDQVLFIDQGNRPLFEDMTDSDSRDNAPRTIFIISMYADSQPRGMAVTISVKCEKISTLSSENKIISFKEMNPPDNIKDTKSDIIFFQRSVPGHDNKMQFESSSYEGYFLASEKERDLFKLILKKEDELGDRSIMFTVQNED . Value?
Solution: 7.54

Problem: Bench note: what pKd did Modified IL-18 polypeptide of SEQ ID NO: 23 (K53A, T63A, C38S, C68S, C76S, C127S, K70C) (ligand) YFGKLESKLSVIRNLNDQVLFIDQGNRPLFEDMTDSDSRDNAPRTIFIISMYADSQPRGMAVAISVKSECISTLSSENKIISFKEMNPPDNIKDTKSDIIFFQRSVPGHDNKMQFESSSYEGYFLASEKERDLFKLILKKEDELGDRSIMFTVQNED show?
Solution: 7.28

Problem: Request the reported pKd associated with Modified IL-18 polypeptide of SEQ ID NO: 15 (C38S, C68S, C76S, C127S) (ligand) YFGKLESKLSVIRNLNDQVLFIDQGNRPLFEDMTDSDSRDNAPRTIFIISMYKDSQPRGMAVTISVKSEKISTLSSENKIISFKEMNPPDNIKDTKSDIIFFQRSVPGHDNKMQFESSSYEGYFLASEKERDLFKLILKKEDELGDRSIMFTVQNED
Solution: 9.70

Continuing:
Problem: Bench note: what pKd did Modified IL-18 polypeptide of SEQ ID NO: 18 (E06K, K53A, T63A) (ligand) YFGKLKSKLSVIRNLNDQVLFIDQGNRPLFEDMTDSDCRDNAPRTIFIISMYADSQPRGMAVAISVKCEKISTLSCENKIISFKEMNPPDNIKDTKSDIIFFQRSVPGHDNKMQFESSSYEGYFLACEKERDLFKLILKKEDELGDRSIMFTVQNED show?
Solution: 7.98

Problem: What value of pKd has been reported for the following binder? Modified IL-18 polypeptide of SEQ ID NO: 71 (E6K, C38S, K53A) (ligand) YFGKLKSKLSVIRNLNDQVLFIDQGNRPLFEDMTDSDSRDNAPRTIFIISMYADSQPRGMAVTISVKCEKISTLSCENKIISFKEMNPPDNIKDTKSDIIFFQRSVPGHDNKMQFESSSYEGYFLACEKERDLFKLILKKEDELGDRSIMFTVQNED
Solution: 8.57
